system: Vibrio cholerae; assay: growth AUC normalised to DMSO control (fraction of control); higher = less growth inhibition, active = hit call of the paper; conditions: 20 µM
Structures can show the parent of a compound that is named as a salt.
READOUT KIND: growth AUC normalised to DMSO control
Output: the number by itself.

Req: Using the record for OCC(O)CN1CCN(c2ccccc2)CC1 (centres undefined) [Dropropizine] , report its growth AUC normalised to DMSO control.
Resp: 1.04

Req: Using the record for CCN(CC)C(=O)/C(C#N)=C/c1cc(O)c(O)c([N+](=O)[O-])c1 [Entacapone] , report its growth AUC normalised to DMSO control.
Resp: 1.07

Req: Using the record for C[N+]1(C)CCC(=C(c2ccccc2)c2ccccc2)CC1 [Diphemanil methylsulfate] , report its growth AUC normalised to DMSO control.
Resp: 1.02

Req: Using the record for CN1CCC[C@@H]1CCO[C@](C)(c1ccccc1)c1ccc(Cl)cc1 [Clemastine fumarate] , report its growth AUC normalised to DMSO control.
Resp: 0.926

Req: Using the record for O=C1Nc2ccc(Cl)cc2[C@@](C#CC2CC2)(C(F)(F)F)O1 [Efavirenz] , report its growth AUC normalised to DMSO control.
Resp: 0.999

Req: Using the record for Nc1nnc(-c2cccc(Cl)c2Cl)c(N)n1 [Lamotrigine] , report its growth AUC normalised to DMSO control.
Resp: 1.03

Req: Using the record for OCCN1CCN(CCCN2c3ccccc3Sc3ccc(C(F)(F)F)cc32)CC1 [Fluphenazine dihydrochloride] , report its growth AUC normalised to DMSO control.
Resp: 1.01

Req: Using the record for CCc1c2c(nc3ccc(OC(=O)N4CCC(N5CCCCC5)CC4)cc13)-c1cc3c(c(=O)n1C2)COC(=O)[C@]3(O)CC [Irinotecan hydrochloride trihydrate] , report its growth AUC normalised to DMSO control.
Resp: 1.01

Req: Using the record for c1ccc(C2CN3CCSC3=N2)cc1 (centres undefined) [Tetramisole hydrochloride] , report its growth AUC normalised to DMSO control.
Resp: 1.01

Req: Using the record for C[C@H](O)C(=O)Nc1c(I)c(C(=O)NC(CO)CO)c(I)c(C(=O)NC(CO)CO)c1I [Iopamidol] , report its growth AUC normalised to DMSO control.
Resp: 1.07

Req: Using the record for C[C@]12C=CC(=O)C=C1CC[C@@H]1[C@@H]2C(=O)C[C@@]2(C)[C@H]1CC[C@]2(O)C(=O)CO [Prednisone] , report its growth AUC normalised to DMSO control.
Resp: 1

Req: Using the record for CN[C@@H]1[C@H](O[C@H]2[C@H](O[C@H]3[C@H](O)[C@@H](O)[C@H](NC(=N)N)[C@@H](O)[C@@H]3NC(=N)N)O[C@@H](C)[C@]2(O)CO)O[C@@H](CO)[C@H](O)[C@H]1O [Dihydrostreptomycin sulfate] , report its growth AUC normalised to DMSO control.
Resp: 1.02

Req: Using the record for CN(C)CCCN1c2ccccc2CCc2ccc(Cl)cc21 [Clomipramine hydrochloride] , report its growth AUC normalised to DMSO control.
Resp: 0.874

Req: Using the record for Nc1ccc(S(=O)(=O)Nc2ccccn2)cc1 [Sulfapyridine] , report its growth AUC normalised to DMSO control.
Resp: 0.984

Req: Using the record for CN1CCCCC1CCN1c2ccccc2Sc2ccc([S+](C)[O-])cc21 (centres undefined) [Mesoridazine besylate] , report its growth AUC normalised to DMSO control.
Resp: 0.949

Req: Using the record for NC(N)=Nc1nc(CSCC/C(N)=N/S(N)(=O)=O)cs1 [Famotidine] , report its growth AUC normalised to DMSO control.
Resp: 0.993

Req: Using the record for O=C(O)Cc1ccc(-c2ccccc2)cc1 [Felbinac] , report its growth AUC normalised to DMSO control.
Resp: 0.996

Req: Using the record for CCN(CC)CCCC(C)Nc1c2ccc(Cl)cc2nc2ccc(OC)cc12 (centres undefined) [Quinacrine dihydrochloride hydrate] , report its growth AUC normalised to DMSO control.
Resp: 1.04

Req: Using the record for Cc1cc(C(C)(C)CC(C)(C)C)ccc1OCCOCC[N+](C)(C)Cc1ccccc1 [Methyl benzethonium chloride] , report its growth AUC normalised to DMSO control.
Resp: 0.943

Req: Using the record for OCCOCCN1CCN(C(c2ccccc2)c2ccc(Cl)cc2)CC1 (centres undefined) [Hydroxyzine dihydrochloride] , report its growth AUC normalised to DMSO control.
Resp: 0.975

Req: Using the record for O=C1CN(/N=C/c2ccc(-c3ccc([N+](=O)[O-])cc3)o2)C(=O)N1 [Dantrolene sodium salt] , report its growth AUC normalised to DMSO control.
Resp: 0.948

Req: Using the record for CC(C)(C(=O)c1cccnc1)c1cccnc1 [Metyrapone] , report its growth AUC normalised to DMSO control.
Resp: 0.965

Req: Using the record for O=c1[nH]c(=O)n([C@H]2C[C@H](O)[C@@H](CO)O2)cc1I [Idoxuridine] , report its growth AUC normalised to DMSO control.
Resp: 0.992

Req: Using the record for CC(C)NCC(O)COc1cccc2[nH]ccc12 (centres undefined) [Pindolol] , report its growth AUC normalised to DMSO control.
Resp: 1.03

Req: Using the record for COC(=O)C1=C(C#N)NC(C)=C(C(=O)OC(C)C)C1c1cccc([N+](=O)[O-])c1 (centres undefined) [Nilvadipine] , report its growth AUC normalised to DMSO control.
Resp: 1.02

Req: Using the record for CC(=O)OCC1=C(C(=O)O)N2C(=O)[C@@H](NC(=O)Cc3cccs3)[C@H]2SC1 [Cephalothin sodium salt] , report its growth AUC normalised to DMSO control.
Resp: 0.0489

Req: Using the record for CN(C)C/C=C(/c1ccc(Br)cc1)c1cccnc1 [Zimelidine dihydrochloride monohydrate] , report its growth AUC normalised to DMSO control.
Resp: 1

Req: Using the record for CC(C)NC(=N)NC(=N)Nc1ccc(Cl)cc1 [Proguanil hydrochloride] , report its growth AUC normalised to DMSO control.
Resp: 0.985

Req: Using the record for C=CC1=C(C(=O)O)N2C(=O)[C@@H](NC(=O)/C(=N\OCC(=O)O)c3csc(N)n3)[C@H]2SC1 [Cefixime] , report its growth AUC normalised to DMSO control.
Resp: 0.0803

Req: Using the record for CC[N+](C)(C)c1cccc(O)c1 [Edrophonium chloride] , report its growth AUC normalised to DMSO control.
Resp: 1.02

Req: Using the record for CCCCNc1cc(C(=O)O)cc(S(N)(=O)=O)c1Oc1ccccc1 [Bumetanide] , report its growth AUC normalised to DMSO control.
Resp: 0.982

Req: Using the record for CC(=O)[C@H]1CC[C@H]2[C@@H]3C=CC4=CC(=O)CC[C@@]4(C)[C@@H]3CC[C@]12C [Dydrogesterone] , report its growth AUC normalised to DMSO control.
Resp: 0.99

Req: Using the record for Cc1ncc([N+](=O)[O-])n1CC(C)O (centres undefined) [Secnidazole] , report its growth AUC normalised to DMSO control.
Resp: 0.99

Req: Using the record for C#Cc1cccc(Nc2ncnc3cc(OCCOC)c(OCCOC)cc23)c1 [Erlotinib] , report its growth AUC normalised to DMSO control.
Resp: 1.02

* * *

test system: P. vulgatus RND KO; assay: growth AUC normalised to DMSO control (median) (fraction of control); higher = less growth inhibition, active = hit call of the paper; details: 20 µM;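 further: active when median AUC fell below 0.1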
Structures can show the parent of a compound that is named as a salt.
Lab note: assign the record to one of active, inactive

Req: Tell me the recorded outcome of this test for O=C(O)Cc1ccccc1Oc1ccc(Cl)cc1Cl .
Resp: inactive

Req: Tell me the recorded outcome of this test for CC(=O)OCC(=O)[C@@]1(O)CC[C@H]2[C@@H]3CCC4=CC(=O)CC[C@]4(C)[C@H]3[C@@H](O)C[C@@]21C [Cortisol acetate] .
Resp: inactive

Req: Tell me the recorded outcome of this test for CCCCc1cc2ccccc2c(OCCN(C)C)n1 [Dimethisoquin hydrochloride] .
Resp: inactive

Req: Tell me the recorded outcome of this test for CCOC(=O)c1ccc(N)cc1 .
Resp: inactive

Req: Tell me the recorded outcome of this test for O=C1c2c(O)cccc2Cc2cccc(O)c21 .
Resp: inactive

Req: Tell me the recorded outcome of this test for CNCCC=C1c2ccccc2C=Cc2ccccc21 .
Resp: inactive

Req: Tell me the recorded outcome of this test for O=C1OCCN1/N=C/c1ccc([N+](=O)[O-])o1 .
Resp: active

Req: Tell me the recorded outcome of this test for N=C(N)NC(=N)NCCc1ccccc1 [Phenformin hydrochloride] .
Resp: inactive

Req: Tell me the recorded outcome of this test for O=C(Oc1ccccc1)c1ccccc1O [Phenyl salicylate] .
Resp: inactive

Req: Tell me the recorded outcome of this test for C/C(=C1\CCOC(=O)S1)N(C=O)Cc1cnc(C)nc1N .
Resp: inactive

Req: Tell me the recorded outcome of this test for CCn1nc(C(=O)O)c(=O)c2cc3c(cc21)OCO3 .
Resp: inactive

Req: Tell me the recorded outcome of this test for CN1CCc2cccc3c2[C@H]1Cc1ccc(O)c(O)c1-3 [R(-) Apomorphine hydrochloride hemihydrate] .
Resp: inactive

Req: Tell me the recorded outcome of this test for O=C1O[C@H]([C@@H](O)CO)C(O)=C1O .
Resp: inactive

Req: Tell me the recorded outcome of this test for CC(=O)Nc1ccccc1 [Acetanilide] .
Resp: inactive

Req: Tell me the recorded outcome of this test for CCOc1cc(CC(=O)N[C@@H](CC(C)C)c2ccccc2N2CCCCC2)ccc1C(=O)O [Repaglinide] .
Resp: inactive

Req: Tell me the recorded outcome of this test for Nc1nc2c(ncn2COCCO)c(=O)[nH]1 .
Resp: inactive

Req: Tell me the recorded outcome of this test for CC=CC1=C(C(=O)O)N2C(=O)[C@@H](NC(=O)[C@H](N)c3ccc(O)cc3)[C@H]2SC1 .
Resp: inactive

Req: Tell me the recorded outcome of this test for NC[C@H]1O[C@H](O[C@H]2[C@H](O)[C@@H](O[C@H]3O[C@H](CO)[C@@H](O)[C@H](N)[C@H]3O)[C@H](N)C[C@@H]2N)[C@H](N)C[C@@H]1O .
Resp: inactive

Req: Tell me the recorded outcome of this test for CC(C)Cc1ccc(CC(=O)O)cc1 .
Resp: inactive
